- tgt: BRN2 (Homo sapiens)
- Sequence (P20265 1-443): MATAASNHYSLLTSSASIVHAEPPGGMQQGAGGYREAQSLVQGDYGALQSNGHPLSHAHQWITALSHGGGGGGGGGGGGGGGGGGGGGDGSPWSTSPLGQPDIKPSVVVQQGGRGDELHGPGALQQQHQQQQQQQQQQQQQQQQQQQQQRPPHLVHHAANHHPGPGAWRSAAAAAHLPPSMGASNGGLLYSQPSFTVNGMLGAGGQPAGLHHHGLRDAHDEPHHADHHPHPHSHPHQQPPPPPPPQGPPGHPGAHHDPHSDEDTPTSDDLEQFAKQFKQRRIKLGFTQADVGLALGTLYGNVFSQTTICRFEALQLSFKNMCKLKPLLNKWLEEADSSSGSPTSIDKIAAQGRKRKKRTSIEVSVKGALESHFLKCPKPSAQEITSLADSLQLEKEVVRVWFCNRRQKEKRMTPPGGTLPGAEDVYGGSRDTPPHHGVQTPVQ
- run-description: cell-based
- study-conditions: read-out: % BRN2 Inhibition (30 μM), 30 μM compound, 24 hours, 42D^ENZR cells stably expressing BRN2-luciferase reporter; negative = activation
Output schema: class label derived from inhibition at 30 µM. Mapping: bottom bin (below 60%), middle bin (60% to below 90%), top bin (90% or more)

Cn1c(-c2ccc(-c3ccc(Br)cc3Cl)o2)nc2ccccc21 = bottom bin
FC(F)(F)c1cccc2oc(-c3csc(-c4ccco4)n3)cc12 = bottom bin
Cn1c(-c2ccc(-c3ccccc3)o2)nc2ccc([N+](=O)[O-])cc21 = bottom bin
O=[N+]([O-])c1ccc(-c2nc(-c3cc4ccc(F)cc4o3)cs2)o1 = bottom bin
FC(F)(F)c1ccc2nc(-c3csc(C4=CCOCC4)n3)oc2c1 = middle bin
O=[N+]([O-])c1ccc2nc(-c3ccc(-c4ccccc4F)o3)[nH]c2c1 = top bin
Cn1c(-c2ccc(N3CCC(F)(F)CC3)o2)nc2ccc(C(F)(F)F)cc21 = bottom bin
CN1CCN(c2ccc(-c3nc4ccc(C(F)(F)F)cc4n3C)o2)CC1 = bottom bin

[Q] Please classify: Cn1c(-c2ccc(-c3cccc(C#N)c3)o2)nc2ccccc21
[A] top bin

[Q] Please classify: Cn1c(-c2ccc(-c3cncnc3)o2)nc2ccccc21
[A] bottom bin

[Q] Please classify: Clc1ccc2cc(-c3csc(N4CC5CC4CO5)n3)oc2c1 (stereo not drawn)
[A] top bin

[Q] Please classify: Clc1ccc2cc(-c3csc(-c4ncco4)n3)oc2c1
[A] bottom bin

[Q] Please classify: Cn1c(-c2ccc(-c3ccc(F)cc3F)o2)nc2ccc([N+](=O)[O-])cc21
[A] bottom bin

[Q] Please classify: Cn1c(-c2ccc(-c3ccccc3)o2)nc2ccc(Cl)cc21
[A] middle bin

[Q] Please classify: Cn1c(-c2ccc(-c3ccccc3F)o2)nc2c(F)cccc21
[A] middle bin

[Q] Please classify: Cn1c(-c2ccc(-c3ccccc3)o2)nc2ccc(S(N)(=O)=O)cc21
[A] middle bin

[Q] Please classify: c1coc(-c2nc(-c3cc4ccccc4o3)cs2)c1
[A] top bin

[Q] Please classify: Cn1c(-c2ccc(-c3ccccc3)o2)nc2ccccc21
[A] top bin

[Q] Please classify: c1ccc2c(-c3cnc(-c4ccoc4)s3)coc2c1
[A] middle bin

[Q] Please classify: CCn1c(-c2ccc(-c3ccccc3)o2)nc2ccccc21
[A] top bin

[Q] Please classify: Clc1ccc2cc(-c3cccc(-c4ccc[nH]4)n3)oc2c1
[A] top bin

[Q] Please classify: FC(F)(F)c1ccc2cc(-c3csc(NC4CC4)n3)oc2c1
[A] top bin

[Q] Please classify: c1coc(-c2nc(-c3coc4ccccc34)cs2)c1
[A] top bin
